biological target: human CD96v2 expressed on cells (human) (UniProt P40200); experiment: competition flow cytometry, inhibition of CD155-Fc-AF647 binding to CHO cells expressing human CD96v2
Returns: string. Value is TRUE if measured IC50 is below 0.4 nM, and FALSE if it is greater than or equal to it.

Please review the following examples before continuing.
>  <Binder>
42Y073-86F04-5 (antibody, V domains shown) VH: QVQLVQSGAEVKKPGSSVKVSCKASGGTFSSHAISWVRQAPGQGLEWMGGIIPIFGRGKYAQKFQGRVTITADESTSTAYMELSSLRSEDTAVYYCARLLGESGMDVWGQGTTVTVSS VL: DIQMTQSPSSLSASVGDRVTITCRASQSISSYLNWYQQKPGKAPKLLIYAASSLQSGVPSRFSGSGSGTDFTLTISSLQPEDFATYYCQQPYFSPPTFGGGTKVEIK

>  <Group>
TRUE

$$$$
>  <Binder>
42Y073-86F04-4 (antibody, V domains shown) VH: QVQLVQSGAEVKKPGSSVKVSCKASGGTFESEAISWVRQAPGQGLEWMGGIIPIFGRARYAQKFQGRVTITADESTSTAYMELSSLRSEDTAVYYCARLLGESGMDVWGQGTTVTVSS VL: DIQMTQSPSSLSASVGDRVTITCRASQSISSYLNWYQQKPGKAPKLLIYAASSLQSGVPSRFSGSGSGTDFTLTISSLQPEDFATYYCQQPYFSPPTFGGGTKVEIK

>  <Group>
TRUE

$$$$

Input line: # check: IC50 < 0.4 nM for 42Y073-1A01-97 (antibody, V domains shown) VH: QVQLVQSGAEVKKPGASVKVSCKASGYTFTRAAMHWVRQAPGQGLEWMGIINPAGGYTSYAQKFQGRVTMTRDTSTSTVYMELSSLRSEDTAVYYCARETAYYTTKGNWFDPWGQGTLVTVSS VL: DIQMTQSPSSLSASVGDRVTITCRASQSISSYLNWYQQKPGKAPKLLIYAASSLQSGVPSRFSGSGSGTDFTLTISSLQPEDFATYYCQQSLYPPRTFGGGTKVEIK
Output line: TRUE

Input line: Please indicate whether the reported IC50 of 42Y073-86F04-23 (antibody, V domains shown) VH: QVQLVQSGAEVKKPGSSVKVSCKASGGTFSGYPISWVRQAPGQGLEWMGGIIPIMGTARYAQKFQGRVTITADESTSTAYMELSSLRSEDTAVYYCARLLGESGMDVWGQGTTVTVSS VL: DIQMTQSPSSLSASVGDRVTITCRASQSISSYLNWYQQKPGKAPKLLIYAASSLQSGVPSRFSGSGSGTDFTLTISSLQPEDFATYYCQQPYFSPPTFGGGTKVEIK is strictly below 0.4 nM.
Output line: FALSE
